# tested-target: human LAIR-1-CD3ζ chimeric receptor on NFAT-GFP reporter cells (human, UniProt P20963 31-164, limits assumed)
# Sequence (P20963 other isoform, or with tags, fused parts or gaps mutant limits assumed): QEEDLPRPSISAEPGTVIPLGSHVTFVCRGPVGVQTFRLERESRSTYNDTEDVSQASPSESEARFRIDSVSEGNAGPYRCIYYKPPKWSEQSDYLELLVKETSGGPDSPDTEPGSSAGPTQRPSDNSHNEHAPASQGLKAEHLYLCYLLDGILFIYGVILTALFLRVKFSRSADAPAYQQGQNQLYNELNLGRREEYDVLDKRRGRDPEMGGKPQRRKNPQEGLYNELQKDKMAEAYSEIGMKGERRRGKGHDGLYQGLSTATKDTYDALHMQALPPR
# test-details: cell-based or functional assay
value-kind: IC50 (read off the curve): % GFP+ human LAIR-1 reporter cells on coated MARCO-his

Query block: Any idea what IC50 (read off the curve): % GFP+ human LAIR-1 reporter cells on coated MARCO-his was measured for humanized anti-LAIR-1 antibody Hz62G10.v1 (antibody, human IgG1, kappa, N297G, V domains shown, Humanized 62G10) VH: EVQLVESGGGLVKPGGSLRLSCAASGFTFNINAMNWVRQAPGKGLEWVARIRTKNNNFATYYADSVKDRFTISRDDSKNTLYLQMNSLKTEDTAVYYCVRGPYFDYWGQGTLVTVSS VL: DIQMTQSPSSLSASVGDRVTITCLASQTIGTWLAWYQQKPGKAPKLLIYAATSLADGVPSRFSGSGSGTDFTLTISSLQPEDFATYYCQQLYSTPYTFGGGTKVEIKR ?
Result block: ~0.05 nM

Query block: Find the recorded IC50 (read off the curve): % GFP+ human LAIR-1 reporter cells on coated MARCO-his belonging to anti-LAIR-1 antibody ch62G10 (antibody, V domains shown, The prefix 'ch' is not defined) VH: EVQLVETGGGLVQPKGSLKLSCATSGFTFNINAMNWVRQAPGKGLEWVARIRTKNNNFATYYADSVKDRFTISRDDSQSMLYLQMNNLKTEDTAMYYCVRGPYFDYWGQGTTLTVSS VL: DIQMTQSPASQSASLGESVTITCLASQTIGTWLAWYQQKPGKSPQLLIYAATSLADGVPSRFSGSGSGTKFSFKISNLQAEDFVTYYCQQLYSTPYTFGGGTKLEIK and report it.
Result block: ~0.06 nM

Shift focus to the following entry.
Query block: Would you kindly share the measured IC50 (read off the curve): % GFP+ human LAIR-1 reporter cells on coated MARCO-his for humanized anti-LAIR-1 antibody Hz47H1.v4 (antibody, human IgG1, kappa, N297G, V domains shown, Humanized 47H1 with reengineered VH CDR2 and VL CDR2) VH: EVQLVESGGGLVQPGGSLRLSCAASGFTFNINAMNWVRQAPGKGLEWVARIRTKNYNYATFYADSVKDRFTISRDDSKNSLYLQMNSLKTEDTAVYYCVRDRAGFFAYWGQGTTVTVSS VL: DIQMTQSPSSLSASVGDRVTITCLASQTIGTWLGWYQQKPGKAPKLLIYAATSLAEGVPSRFSGSGSGTDFTLTISSLQPEDFATYYCQQLYSTPLTFGGGTKVEIKR ?
Result block: ~0.02 nM
